Where do the numbers come from? From paper PMC6337671.

Catalogue of Long-Term Stability (−80 °C, 14 Days), RE readings, one per entry.
Assay: Stability of the nine components in rat plasma QC samples (auto-sampler, freeze-thaw, long-term)
Format: physicochemical
Details: rat plasma, LQC spiked 15 ng/mL (30 ng/mL for II), n = 5
VALUE TYPE: Long-Term Stability (−80 °C, 14 Days), RE (%)

- MOLECULE: "O=C(/C=C/c1ccc(O)c(O)c1)O[C@@H]1C[C@](O)(C(=O)O)C[C@@H](O)[C@H]1O [I, 5-caffeoylquinic acid]"
  DISPLAY UNIT: "%"
  ASSAY RESULT: "−10.71"
- MOLECULE: "O=c1cc(-c2ccc(O)c(O)c2)oc2cc(O[C@@H]3O[C@H](CO)[C@@H](O)[C@H](O)[C@H]3O)cc(O)c12 [VIII, luteolin-7-O-β-D-glucoside]"
  DISPLAY UNIT: "%"
  ASSAY RESULT: "−1.72"
- MOLECULE: "O=C(/C=C/c1ccc(O)c(O)c1)O[C@@H](C(=O)O)[C@@H](O)C(=O)O"
  DISPLAY UNIT: "%"
  ASSAY RESULT: 1.30
- MOLECULE: "O=C(O)/C=C/c1ccc(O)c(O)c1"
  DISPLAY UNIT: "%"
  ASSAY RESULT: "−17.21"
- MOLECULE: "O=C(/C=C/c1ccc(O)c(O)c1)O[C@@H]1C[C@](O)(C(=O)O)C[C@@H](O)[C@H]1O [III, chlorogenic acid]"
  DISPLAY UNIT: "%"
  ASSAY RESULT: "−1.71"
- MOLECULE: "O=C(O)[C@H]1O[C@@H](Oc2cc(O)c3c(=O)cc(-c4ccc(O)c(O)c4)oc3c2)[C@H](O)[C@@H](O)[C@@H]1O [VII, luteolin-7-O-β-D-glucuronide]"
  DISPLAY UNIT: "%"
  ASSAY RESULT: "−2.91"
- MOLECULE: "O=C(/C=C/c1ccc(O)c(O)c1)O[C@H]1[C@H](O)C[C@](O)(C(=O)O)C[C@H]1O"
  DISPLAY UNIT: "%"
  ASSAY RESULT: "−10.44"
- MOLECULE: "O=C(O)[C@H]1O[C@@H](Oc2cc(O)c3c(=O)cc(-c4ccc(O)cc4)oc3c2)[C@H](O)[C@@H](O)[C@@H]1O [IX, apigenin-7-O-β-D-glucuronide]"
  DISPLAY UNIT: "%"
  ASSAY RESULT: "−2.73"
- MOLECULE: "O=c1cc(-c2ccc(O)c(O)c2)oc2cc(O[C@@H]3O[C@H](CO[C@@H]4O[C@H](CO)[C@@H](O)[C@H](O)[C@H]4O)[C@@H](O)[C@H](O)[C@H]3O)cc(O)c12 [Compound VI, luteolin-7-O-β-D-gentiobioside]"
  DISPLAY UNIT: "%"
  ASSAY RESULT: "−0.68"

====

Experiment: Stability of the nine components in rat plasma QC samples (auto-sampler, freeze-thaw, long-term)
Type: physicochemical
Details: extracted rat plasma, MQC spiked 500 ng/mL (1000 ng/mL for II), n = 5
Quick rule: 6 h in Auto-Sample, RE of at least -10% means MET, below that means NOT MET.

- COMPOUND: "O=C(O)[C@H]1O[C@@H](Oc2cc(O)c3c(=O)cc(-c4ccc(O)c(O)c4)oc3c2)[C@H](O)[C@@H](O)[C@@H]1O [VII, luteolin-7-O-β-D-glucuronide]"
  LABEL: "NOT MET"
- COMPOUND: "O=C(/C=C/c1ccc(O)c(O)c1)O[C@H]1[C@H](O)C[C@](O)(C(=O)O)C[C@H]1O [IV, 4-caffeoylquinic acid]"
  LABEL: "NOT MET"
- COMPOUND: "O=C(/C=C/c1ccc(O)c(O)c1)O[C@@H](C(=O)O)[C@@H](O)C(=O)O [II, caftaric acid]"
  LABEL: "MET"
- COMPOUND: "O=c1cc(-c2ccc(O)c(O)c2)oc2cc(O[C@@H]3O[C@H](CO)[C@@H](O)[C@H](O)[C@H]3O)cc(O)c12 [VIII, luteolin-7-O-β-D-glucoside]"
  LABEL: "MET"
- COMPOUND: "O=C(O)/C=C/c1ccc(O)c(O)c1 [Compound V, caffeic acid]"
  LABEL: "NOT MET"
- COMPOUND: "O=c1cc(-c2ccc(O)c(O)c2)oc2cc(O[C@@H]3O[C@H](CO[C@@H]4O[C@H](CO)[C@@H](O)[C@H](O)[C@H]4O)[C@@H](O)[C@H](O)[C@H]3O)cc(O)c12 [Compound VI, luteolin-7-O-β-D-gentiobioside]"
  LABEL: "NOT MET"
- COMPOUND: "O=C(O)[C@H]1O[C@@H](Oc2cc(O)c3c(=O)cc(-c4ccc(O)cc4)oc3c2)[C@H](O)[C@@H](O)[C@@H]1O [IX, apigenin-7-O-β-D-glucuronide]"
  LABEL: "MET"
- COMPOUND: "O=C(/C=C/c1ccc(O)c(O)c1)O[C@@H]1C[C@](O)(C(=O)O)C[C@@H](O)[C@H]1O [III, chlorogenic acid]"
  LABEL: "NOT MET"
- COMPOUND: "O=C(/C=C/c1ccc(O)c(O)c1)O[C@@H]1C[C@](O)(C(=O)O)C[C@@H](O)[C@H]1O [I, 5-caffeoylquinic acid]"
  LABEL: "NOT MET"

====

Assay: Stability of the nine components in rat plasma QC samples (auto-sampler, freeze-thaw, long-term)
Type: physicochemical
Conditions: rat plasma, MQC spiked 500 ng/mL (1000 ng/mL for II), n = 5
Catalogue of Long-Term Stability (−80 °C, 14 Days), RE readings, one per entry.
VALUE TYPE: Long-Term Stability (−80 °C, 14 Days), RE

- COMPOUND: "O=C(/C=C/c1ccc(O)c(O)c1)O[C@H]1[C@H](O)C[C@](O)(C(=O)O)C[C@H]1O [IV, 4-caffeoylquinic acid]"
  ASSAY RESULT: "−1.40%"
- COMPOUND: "O=C(O)[C@H]1O[C@@H](Oc2cc(O)c3c(=O)cc(-c4ccc(O)c(O)c4)oc3c2)[C@H](O)[C@@H](O)[C@@H]1O [VII, luteolin-7-O-β-D-glucuronide]"
  ASSAY RESULT: "−0.26%"
- COMPOUND: "O=C(/C=C/c1ccc(O)c(O)c1)O[C@@H]1C[C@](O)(C(=O)O)C[C@@H](O)[C@H]1O [I, 5-caffeoylquinic acid]"
  ASSAY RESULT: "−1.12%"

====

Assay: Stability of the nine components in rat plasma QC samples (auto-sampler, freeze-thaw, long-term)
Format: physicochemical
Details: extracted rat plasma, LQC spiked 15 ng/mL (30 ng/mL for II), n = 5
Threshold check on 6 h in Auto-Sample, RE: strictly below -10% is Satisfied; on or above -10% is Not satisfied.

- COMPOUND: "O=C(O)[C@H]1O[C@@H](Oc2cc(O)c3c(=O)cc(-c4ccc(O)c(O)c4)oc3c2)[C@H](O)[C@@H](O)[C@@H]1O [VII, luteolin-7-O-β-D-glucuronide]"
  LABEL: "Not satisfied"
- COMPOUND: "O=C(/C=C/c1ccc(O)c(O)c1)O[C@@H]1C[C@](O)(C(=O)O)C[C@@H](O)[C@H]1O [I, 5-caffeoylquinic acid]"
  LABEL: "Satisfied"
- COMPOUND: "O=C(O)/C=C/c1ccc(O)c(O)c1"
  LABEL: "Satisfied"
- COMPOUND: "O=C(O)[C@H]1O[C@@H](Oc2cc(O)c3c(=O)cc(-c4ccc(O)cc4)oc3c2)[C@H](O)[C@@H](O)[C@@H]1O [IX, apigenin-7-O-β-D-glucuronide]"
  LABEL: "Satisfied"
- COMPOUND: "O=C(/C=C/c1ccc(O)c(O)c1)O[C@@H](C(=O)O)[C@@H](O)C(=O)O"
  LABEL: "Satisfied"
- COMPOUND: "O=C(/C=C/c1ccc(O)c(O)c1)O[C@@H]1C[C@](O)(C(=O)O)C[C@@H](O)[C@H]1O [III, chlorogenic acid]"
  LABEL: "Not satisfied"
- COMPOUND: "O=c1cc(-c2ccc(O)c(O)c2)oc2cc(O[C@@H]3O[C@H](CO)[C@@H](O)[C@H](O)[C@H]3O)cc(O)c12 [VIII, luteolin-7-O-β-D-glucoside]"
  LABEL: "Satisfied"
- COMPOUND: "O=c1cc(-c2ccc(O)c(O)c2)oc2cc(O[C@@H]3O[C@H](CO[C@@H]4O[C@H](CO)[C@@H](O)[C@H](O)[C@H]4O)[C@@H](O)[C@H](O)[C@H]3O)cc(O)c12 [Compound VI, luteolin-7-O-β-D-gentiobioside]"
  LABEL: "Satisfied"
- COMPOUND: "O=C(/C=C/c1ccc(O)c(O)c1)O[C@H]1[C@H](O)C[C@](O)(C(=O)O)C[C@H]1O"
  LABEL: "Satisfied"
